target: KDR (Homo sapiens, UniProt P35968); test: Human KDR kinase assay (33P-phosphoryl transfer radiometric, KinaseProfiler); parameters: Human KDR (residues K790-V1356, 55 nM); purchased Eurofins Pharma Discovery Services UK Limited (KinaseProfiler service); conditions: biochemical activity; 10 μM ATP
Sequence (P35968 790-1356): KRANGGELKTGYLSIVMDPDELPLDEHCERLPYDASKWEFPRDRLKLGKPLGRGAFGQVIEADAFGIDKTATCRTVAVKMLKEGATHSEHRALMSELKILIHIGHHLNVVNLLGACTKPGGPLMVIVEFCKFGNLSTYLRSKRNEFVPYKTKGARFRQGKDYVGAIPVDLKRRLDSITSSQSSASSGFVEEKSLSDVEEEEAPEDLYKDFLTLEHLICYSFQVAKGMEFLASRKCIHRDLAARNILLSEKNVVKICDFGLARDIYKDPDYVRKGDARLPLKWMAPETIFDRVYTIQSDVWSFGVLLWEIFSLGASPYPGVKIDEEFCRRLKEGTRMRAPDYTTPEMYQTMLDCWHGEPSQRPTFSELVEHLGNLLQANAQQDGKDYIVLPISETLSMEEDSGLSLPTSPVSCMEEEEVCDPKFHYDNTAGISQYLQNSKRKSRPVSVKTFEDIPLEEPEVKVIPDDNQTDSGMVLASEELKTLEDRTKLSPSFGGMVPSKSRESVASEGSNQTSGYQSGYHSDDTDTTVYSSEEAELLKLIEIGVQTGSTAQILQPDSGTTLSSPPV
pIC50: −log10 of the molar value.
Each entry below carries its recorded pIC50.

Record excerpt, results attached:
1. O=C(Nc1ccc(F)cc1)C1(C(=O)Nc2ccc(Oc3ccnc4cc(-c5cnn[nH]5)ccc34)cc2)CC1 [Compound 65]    6.00 to 7.00
2. O=C(Nc1ccc(F)cc1)C1(C(=O)Nc2ccc(Oc3ccnc4cc(-c5cnn(CC(F)F)c5)ccc34)cc2)CC1 [Compound 15]    7.00 to 8.00
3. Cn1cnc(-c2ccc3c(Oc4ccc(NC(=O)C5(C(=O)Nc6ccc(F)cc6)CC5)cc4)ccnc3c2)c1 [Compound 69]    7.00 to 8.00
4. Cn1cc(-c2ccc3c(Oc4ccc(NC(=O)C5(C(=O)Nc6ccc(F)cc6)CC5)cc4)ccnc3c2)cn1 [Compound 11]    7.00 to 8.00
5. Cc1noc(C)c1-c1ccc2c(Oc3ccc(NC(=O)C4(C(=O)Nc5ccc(F)cc5)CC4)cc3)ccnc2c1 [Compound 53]    7.00 to 8.00

Prompt line: Name the reported pIC50 value associated with the compound Cc1cc(F)cc(C)c1NC(=O)C1(C(=O)Nc2ccc(Oc3ccnc4cc(-c5cnn(C)c5)ccc34)cc2)CC1 [Compound 82]
Response line: 7.00 to 8.00

Prompt line: Using the record for O=C(Nc1ccc(F)cc1)C1(C(=O)Nc2ccc(Oc3ccnc4cc(-c5ncc[nH]5)ccc34)cc2)CC1 [Compound 74] , report its pIC50.
Response line: 7.00 to 8.00

---

molecular target: Met (Homo sapiens, UniProt P08581); assay: Met autophosphorylation ELISA in PC-3 cells; format: cell-based; set-up: endogenous in cells; host or cells: PC-3 prostate cancer cells (ATCC #CRL-1435); conditions: cellular activity, HGF-stimulated, phospho-Met ELISA, read-out: c-Met IC50
Sequence (P08581 25-1390): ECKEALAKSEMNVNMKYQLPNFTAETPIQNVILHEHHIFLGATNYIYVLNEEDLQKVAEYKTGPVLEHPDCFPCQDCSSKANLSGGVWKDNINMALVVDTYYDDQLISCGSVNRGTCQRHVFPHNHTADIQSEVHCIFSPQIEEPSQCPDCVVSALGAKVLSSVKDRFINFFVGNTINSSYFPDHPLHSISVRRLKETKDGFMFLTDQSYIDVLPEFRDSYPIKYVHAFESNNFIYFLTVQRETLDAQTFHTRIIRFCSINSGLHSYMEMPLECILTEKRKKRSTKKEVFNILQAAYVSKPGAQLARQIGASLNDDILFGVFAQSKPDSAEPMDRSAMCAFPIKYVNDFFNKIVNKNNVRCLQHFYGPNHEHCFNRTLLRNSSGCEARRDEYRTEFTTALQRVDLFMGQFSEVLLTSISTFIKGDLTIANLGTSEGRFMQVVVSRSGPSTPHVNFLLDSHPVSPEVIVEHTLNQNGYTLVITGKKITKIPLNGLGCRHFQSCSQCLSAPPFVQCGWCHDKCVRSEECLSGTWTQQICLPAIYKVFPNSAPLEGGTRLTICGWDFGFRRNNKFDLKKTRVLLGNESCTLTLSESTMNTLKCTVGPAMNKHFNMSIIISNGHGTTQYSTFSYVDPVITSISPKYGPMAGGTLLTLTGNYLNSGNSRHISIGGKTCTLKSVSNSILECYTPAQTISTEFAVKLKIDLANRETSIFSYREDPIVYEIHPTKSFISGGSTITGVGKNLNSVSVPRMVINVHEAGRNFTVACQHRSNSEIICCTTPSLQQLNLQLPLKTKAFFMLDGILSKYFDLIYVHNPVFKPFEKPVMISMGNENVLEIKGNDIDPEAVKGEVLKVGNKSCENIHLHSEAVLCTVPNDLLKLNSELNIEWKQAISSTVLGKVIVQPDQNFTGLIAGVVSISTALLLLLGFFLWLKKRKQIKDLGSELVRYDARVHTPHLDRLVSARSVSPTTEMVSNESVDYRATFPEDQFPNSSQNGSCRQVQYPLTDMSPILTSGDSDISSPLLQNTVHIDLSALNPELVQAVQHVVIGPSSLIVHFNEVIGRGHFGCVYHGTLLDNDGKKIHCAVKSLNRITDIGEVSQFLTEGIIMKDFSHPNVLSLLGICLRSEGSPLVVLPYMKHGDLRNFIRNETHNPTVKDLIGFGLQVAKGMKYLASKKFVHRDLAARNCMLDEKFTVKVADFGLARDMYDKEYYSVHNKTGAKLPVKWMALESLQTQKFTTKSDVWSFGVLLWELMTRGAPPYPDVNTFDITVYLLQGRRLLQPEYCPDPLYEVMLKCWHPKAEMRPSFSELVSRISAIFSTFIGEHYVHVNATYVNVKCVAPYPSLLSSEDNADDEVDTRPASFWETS
pIC50: −log10 of the molar value.
Measured Property: pIC50

1. O=C(Nc1ccc(F)cc1)C1(C(=O)Nc2ccc(Oc3ccnc4cc(-c5cnn(C(F)F)c5)ccc34)c(F)c2)CC1 [Compound 123]    7.00 to 8.00
2. Cn1ccc(-c2ccc3c(Oc4ccc(NC(=O)C5(C(=O)Nc6ccc(F)cc6)CC5)cc4)ccnc3c2)n1 [Compound 17]    7.00 to 8.00
3. O=C(Nc1ccc(F)cc1)C1(C(=O)Nc2ccc(Oc3ccnc4cc(-c5cnn6c5CCC6)ccc34)cc2)CC1 [Compound 29]    7.00 to 8.00
4. O=C(Nc1ccc(F)cc1)C1(C(=O)Nc2ccc(Oc3ccnc4cc(-c5ccc(O)nc5)ccc34)cc2)CC1 [Compound 51]    ≥ 8.00
5. O=C(Nc1ccc(F)cc1)C1(C(=O)Nc2ccc(Oc3ccnc4cc(-c5ccn(CF)n5)ccc34)cc2)CC1 [Compound 102]    7.00 to 8.00
6. O=C(Nc1ccc(F)cc1)C1(C(=O)Nc2ccc(Oc3ccnc4cc(-c5cnn(CF)c5)ccc34)cc2)CC1 [Compound 94]    7.00 to 8.00

Prompt line: Write down the reported pIC50 of O=C(Nc1ccc(F)cc1)C1(C(=O)Nc2ccc(Oc3ccnc4cc(-c5cnn[nH]5)ccc34)cc2)CC1 [Compound 65] , test system: Met (Homo sapiens, UniProt P08581).
Response line: < 6.52

Prompt line: Form field - read-out: pIC50; system: Met (Homo sapiens, UniProt P08581); submitted item: O=C(Nc1ccc(F)cc1)C1(C(=O)Nc2ccc(Oc3ccnc4cc(-c5cncc(F)c5)ccc34)cc2)CC1 [Compound 45]
Response line: 6.52 to 7.00

Prompt line: Which pIC50 is reported with Met (Homo sapiens, UniProt P08581) for this entry: O=C(Nc1ccc(F)cc1)C1(C(=O)Nc2cc(F)c(Oc3ccnc4cc(-c5cnn(C(F)F)c5)ccc34)cc2F)CC1 [Compound 118] ?
Response line: 7.00 to 8.00

Prompt line: Query pIC50 on Met (Homo sapiens, UniProt P08581) for Cn1ccnc1-c1ccc2c(Oc3ccc(NC(=O)C4(C(=O)Nc5ccc(F)cc5)CC4)cc3)ccnc2c1 [Compound 75]
Response line: 7.00 to 8.00

Prompt line: # get_value(readout= pIC50, system= Met (Homo sapiens, UniProt P08581)) for O=C(Nc1ccc(F)cc1)C1(C(=O)Nc2ccc(Oc3ccnc4cc(-c5cnn(CCF)c5)ccc34)cc2)CC1 [Compound 14]
Response line: ≥ 8.00

Prompt line: Field: pIC50 (Met (Homo sapiens, UniProt P08581)). Entry: Cc1cc(-c2ccc3c(Oc4ccc(NC(=O)C5(C(=O)Nc6ccc(F)cc6)CC5)cc4)ccnc3c2)n[nH]1 [Compound 99]
Response line: 7.00 to 8.00

Prompt line: Test system Met (Homo sapiens, UniProt P08581); read-out pIC50; what value for Cc1cc2c(Oc3cc(Cl)c(NC(=O)C4(C(=O)Nc5ccc(F)cc5)CC4)cc3F)ccnc2cc1-c1cnn(C)c1 [Compound 112] ?
Response line: 7.00 to 8.00

Prompt line: Kindly state the measured pIC50 obtained for Cn1cc(-c2ccc3c(Oc4ccc(NC(=O)C5(C(=O)N6CCc7cc(F)ccc76)CC5)cc4)ccnc3c2)cn1 [Compound 81] with Met (Homo sapiens, UniProt P08581).
Response line: 7.00 to 8.00

Prompt line: Quick check: pIC50 on Met (Homo sapiens, UniProt P08581), item Cc1cc2c(Oc3ccc(NC(=O)C4(C(=O)Nc5ccc(F)cc5)CC4)cc3)ccnc2cc1-c1cn[nH]c1 [Compound 106] ?
Response line: 7.00 to 8.00

Prompt line: API: value(readout=pIC50, system=Met (Homo sapiens, UniProt P08581)) for record O=C(Nc1ccc(F)cc1)C1(C(=O)Nc2ccc(Oc3ccnc4cc(-c5ccn(C6CC6)n5)ccc34)cc2)CC1 [Compound 98]
Response line: 7.00 to 8.00

Prompt line: Value wanted: pIC50 (Met (Homo sapiens, UniProt P08581)) of entry O=C(Nc1ccc(F)cc1)C1(C(=O)Nc2ccc(Oc3ccnc4cc(-c5ccnc(F)c5)ccc34)cc2)CC1 [Compound 33]
Response line: 7.00 to 8.00

Prompt line: # query: pIC50 | item Cn1ccc(-c2ccc3c(Oc4ccc(NC(=O)C5(C(=O)Nc6ccc(F)cc6)CC5)cc4)ccnc3c2)cc1=O [Compound 117] | system: Met (Homo sapiens, UniProt P08581)
Response line: 7.00 to 8.00

Prompt line: Any idea what pIC50 came out for O=C(Nc1ccc(F)cc1)C1(C(=O)Nc2ccc(Oc3ccnc4cc(-c5cnn(CC(F)F)c5)ccc34)cc2)CC1 [Compound 15] on Met (Homo sapiens, UniProt P08581)?
Response line: 7.00 to 8.00

---

molecular target: Mer (Homo sapiens, UniProt Q12866); assay: Mer autophosphorylation ELISA in transient transfected 293A cells; conditions: cellular activity; MERTK-transfected 293A cells, phospho-Mer ELISA
Sequence (Q12866 21-999): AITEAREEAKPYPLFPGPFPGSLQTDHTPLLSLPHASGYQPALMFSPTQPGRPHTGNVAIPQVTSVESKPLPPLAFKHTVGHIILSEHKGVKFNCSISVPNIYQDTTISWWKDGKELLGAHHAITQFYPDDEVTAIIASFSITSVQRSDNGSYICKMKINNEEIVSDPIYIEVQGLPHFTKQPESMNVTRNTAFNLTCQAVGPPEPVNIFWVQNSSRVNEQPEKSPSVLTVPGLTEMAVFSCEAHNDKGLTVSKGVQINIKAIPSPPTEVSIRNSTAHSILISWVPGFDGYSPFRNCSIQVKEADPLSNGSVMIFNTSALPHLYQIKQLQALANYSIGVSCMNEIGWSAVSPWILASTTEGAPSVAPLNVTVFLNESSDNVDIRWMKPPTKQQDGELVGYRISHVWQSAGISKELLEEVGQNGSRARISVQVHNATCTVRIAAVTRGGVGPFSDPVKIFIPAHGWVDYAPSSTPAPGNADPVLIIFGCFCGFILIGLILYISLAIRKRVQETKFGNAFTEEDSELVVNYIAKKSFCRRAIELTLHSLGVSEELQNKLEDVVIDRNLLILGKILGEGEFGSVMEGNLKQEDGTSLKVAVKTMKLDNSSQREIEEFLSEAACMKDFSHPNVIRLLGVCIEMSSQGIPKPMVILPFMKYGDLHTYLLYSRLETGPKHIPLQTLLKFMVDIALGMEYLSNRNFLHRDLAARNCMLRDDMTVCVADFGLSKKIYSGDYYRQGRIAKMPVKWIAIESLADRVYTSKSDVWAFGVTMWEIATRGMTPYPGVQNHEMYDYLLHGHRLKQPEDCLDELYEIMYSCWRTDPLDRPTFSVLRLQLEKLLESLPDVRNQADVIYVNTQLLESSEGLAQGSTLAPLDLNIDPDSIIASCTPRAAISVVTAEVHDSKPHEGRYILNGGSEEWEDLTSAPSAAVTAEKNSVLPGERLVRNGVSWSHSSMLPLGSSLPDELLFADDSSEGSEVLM
As shown below, each of these molecules has a reported IC50 value.

Known IC50 results, listed for orientation:
1) CC(C)(C)n1cc(-c2ccc3c(Oc4ccc(NC(=O)C5(C(=O)Nc6ccc(F)cc6)CC5)cc4)ccnc3c2)cn1 [Compound 23]    10 to 100 nM
2) O=C(Nc1ccc(F)cc1)C1(C(=O)Nc2ccc(Oc3ccnc4cc(-c5ccncn5)ccc34)cc2)CC1 [Compound 114]    10 to 100 nM
3) Cn1ccnc1-c1ccc2c(Oc3ccc(NC(=O)C4(C(=O)Nc5ccc(F)cc5)CC4)cc3)ccnc2c1 [Compound 75]    10 to 100 nM

Prompt line: Which measured IC50 belongs to CC(C)Oc1ccc(-c2ccc3c(Oc4ccc(NC(=O)C5(C(=O)Nc6ccc(F)cc6)CC5)cc4)ccnc3c2)cn1 [Compound 50] , tested on Mer (Homo sapiens, UniProt Q12866)?
Response line: 100 to 300 nM

Prompt line: Report IC50 for COc1cc(-c2ccc3c(Oc4ccc(NC(=O)C5(C(=O)Nc6ccc(F)cc6)CC5)cc4)ccnc3c2)ccn1 [Compound 31] tested on Mer (Homo sapiens, UniProt Q12866).
Response line: 10 to 100 nM

Prompt line: Query for Mer (Homo sapiens, UniProt Q12866): what IC50 does the record show for N#Cc1cncc(-c2ccc3c(Oc4ccc(NC(=O)C5(C(=O)Nc6ccc(F)cc6)CC5)cc4)ccnc3c2)c1 [Compound 40] ?
Response line: 10 to 100 nM

Prompt line: What is its IC50 for Mer (Homo sapiens, UniProt Q12866)? Entry: O=C(Nc1ccc(F)cc1)C1(C(=O)Nc2ccc(Oc3ccnc4cc(-c5cccnc5O)ccc34)cc2)CC1 [Compound 52]
Response line: 100 to 300 nM

---

Listed here: items and their measured IC50.
biological target: Mer (Homo sapiens); assay: Mer autophosphorylation ELISA in transient transfected 293A cells; conditions: cellular activity; MERTK-transfected 293A cells, phospho-Mer ELISA

1) O=C(Nc1ccc(F)cc1)C1(C(=O)Nc2cc(F)c(Oc3ccnc4cc(-c5cnn(C(F)F)c5)ccc34)cc2F)CC1    10 to 100 nM
2) O=C(Nc1ccc(F)cc1)C1(C(=O)Nc2ccc(Oc3ccnc4cc(-c5cccnc5)ccc34)cc2)CC1    10 to 100 nM
3) Cc1cc2c(Oc3cc(F)c(NC(=O)C4(C(=O)Nc5ccc(F)cc5)CC4)cc3F)ccnc2cc1-c1ncc[nH]1    10 to 100 nM
4) O=C(Nc1ccc(F)cc1)C1(C(=O)Nc2ccc(Oc3ccnc4cc(C5=CCOC5)ccc34)cc2)CC1    10 to 100 nM

Prompt line: Look at this molecule and give its reported IC50. `O=C(Nc1ccc(F)cc1)C1(C(=O)Nc2ccc(Oc3ccnc4cc(-c5ccn(C(F)F)n5)ccc34)cc2)CC1`
Response line: 10 to 100 nM

Prompt line: # query: IC50 of entry `O=C(Nc1ccc(F)cc1)C1(C(=O)Nc2ccc(Oc3ccnc4cc(-c5cnn(CCO)c5)ccc34)cc2)CC1`
Response line: ≤ 10 nM

Prompt line: Report IC50 for `O=C(Nc1ccc(F)cc1)C1(C(=O)Nc2ccc(Oc3ccnc4cc(-c5cnn(C6COC6)c5)ccc34)cc2)CC1` please.
Response line: ≤ 10 nM
